Numbers sourced from paper PMC4252588.

# study system: Y-CYP51A (Trypanosoma cruzi, UniProt Q7Z1V1, P355S)
# experiment summary: Type 1 spectral response, substrate binding
pKd: −log10 of the molar value.
test readout: pKd

In [3]: df
Out[3]:
                                   molecule                              study_system  test_readout  observed_measurement
0  C=C(CCC(C)C1CCC2(C)C3=C(CCC12C)C1(C)CCC(O)C(C)(C)C1CC3)C(C)C (stereo not shown) [Substrate, eburicol]  Y-CYP51A (Trypanosoma cruzi, UniProt Q7Z1V1, P355S)           pKd                  5.81

----------
# Tested on: Y strain T. cruzi amastigotes
# experiment summary: Cellular infection assay, human stage
# Assay type: cell-based, Trypanosoma cruzi
# assay conditions: Trypanosoma cruzi, Vero, in Homo sapiens
test readout: EC50

>>> df
                               smiles_entry  test_readout  observed_measurement
0  O=C(N[C@@H](Cn1ccnc1)c1ccc(Cl)cc1Cl)c1ccc(-c2nnc(-c3ccccc3)o2)cc1          EC50                > 5 nM

----------
# study system: Tulahuen CYP51 (Trypanosoma cruzi, UniProt Q7Z1V1, A9G)
# experiment summary: Type 1 spectral response, substrate binding
test readout: Kd

In [3]: df
Out[3]:
                                   molecule  observed_measurement
0  C=C(CCC(C)C1CCC2(C)C3=C(CCC12C)C1(C)CCC(O)C(C)(C)C1CC3)C(C)C (stereo not shown) [Substrate, eburicol]                800 nM
